# Study Target: CDK6/Cyclin D3 (Homo sapiens (Human))
# Sequence (Q00534 whole entry): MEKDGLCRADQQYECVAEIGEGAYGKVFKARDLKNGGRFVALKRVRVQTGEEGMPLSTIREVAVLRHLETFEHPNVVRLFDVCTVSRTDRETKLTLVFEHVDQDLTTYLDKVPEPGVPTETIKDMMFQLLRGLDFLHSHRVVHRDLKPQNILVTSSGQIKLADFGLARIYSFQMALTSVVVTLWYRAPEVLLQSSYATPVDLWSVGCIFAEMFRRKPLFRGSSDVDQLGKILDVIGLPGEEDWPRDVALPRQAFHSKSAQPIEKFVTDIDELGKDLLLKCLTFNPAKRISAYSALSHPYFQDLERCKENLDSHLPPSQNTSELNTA
# Sequence (P30281 whole entry partner): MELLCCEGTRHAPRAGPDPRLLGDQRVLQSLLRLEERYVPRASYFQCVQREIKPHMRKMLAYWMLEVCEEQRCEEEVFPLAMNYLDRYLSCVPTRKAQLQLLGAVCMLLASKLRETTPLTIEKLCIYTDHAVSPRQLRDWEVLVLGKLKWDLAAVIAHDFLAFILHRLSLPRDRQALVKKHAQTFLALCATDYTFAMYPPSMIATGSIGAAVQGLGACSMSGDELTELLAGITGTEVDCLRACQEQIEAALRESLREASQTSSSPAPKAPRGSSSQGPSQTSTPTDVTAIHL
# Test: CDK6/Cyclin D3 mobility shift assay
# Assay type: biochemical
# Measurement Parameters: activated CDK6/Cyclin D3, 3.5 mM ATP, Morrison fit; read-out: CDK6_D3 Ki
Counter-ions that a name gives are not always drawn.
For each entry below, report its Ki value.
Enter your answer as a number in µM; do not include the unit.

State its Ki: CC(C)n1c(C(C)(C)O)nc2c(F)cc(-c3nc(N[C@@H]4CCOC[C@H]4O)ncc3Cl)cc21 0.0139

Supply recorded Ki for CC(C)n1c(CN2CCC2)nc2c(F)cc(-c3nc(N[C@@H]4CCOC[C@H]4O)ncc3Cl)cc21 here. 0.043

Hello, please tell me recorded Ki for this one: Cc1nc2c(F)cc(-c3nc(N[C@@H]4CCNC[C@H]4O)ncc3F)cc2n1C(C)C 0.0342

For the compound Cc1nc2cc(Cl)c(-c3nc(N[C@@H]4CCN(S(C)(=O)=O)C[C@H]4O)ncc3F)cc2n1C(C)C , give its measured Ki value. 0.0981

Look up and state reported Ki for CC(N)c1nc2c(F)cc(-c3nc(N[C@@H]4CCN(S(C)(=O)=O)C[C@H]4O)ncc3Cl)cc2n1C(C)C (single isomer, unassigned) [Example A47] 0.0246

Please look at this compound and report its Ki: CN(C)CCN1CC[C@@H](Nc2ncc(Cl)c(-c3cc(F)c4ncn(C(C)(C)C)c4c3)n2)[C@H](O)C1 [Example F06, formic acid salt] 0.0278

Give the value of Ki reported for the following: CC(C)n1cnc2c(F)cc(-c3nc(N[C@@H]4CCN(C(=O)C[C@H](N)C(F)(F)F)C[C@H]4O)ncc3Cl)cc21 0.023

Values compiled from patent US10766884B2.
